- Tested on: NCI-H460 lung
- experiment-description: NCI tumour cell line growth inhibition, 48 h
Here the recorded TGI is given for each entry.

molecule=C=CCn1c(-c2ccc(-c3cs/c(=N\N=O)n3CC=C)cc2)cs/c1=N\N=O measured_on="NCI-H460 lung" assay_result="> 100 µM"
molecule=Cc1ncc([N+](=O)[O-])n1CCNC(=O)Cn1c([N+](=O)[O-])cnc1C measured_on="NCI-H460 lung" assay_result="> 100 µM"
molecule="O=C1C=CC(O)C2C1CC13SSC4(CC5C(=O)C=CC(O)C5N4C1=O)C(=O)N23 (stereo unspecified)" measured_on="NCI-H460 lung" assay_result="> 34.2 µM"
molecule="CCn1c2ccccc2c2cc(C(O)c3cccc4ncccc34)ccc21 (stereo unspecified)" measured_on="NCI-H460 lung" assay_result="4.61 µM"
molecule=CCOP(=O)(OCC)/C(C#N)=C/c1ccnc2ccccc12 measured_on="NCI-H460 lung" assay_result="> 100 µM"
molecule=Nc1n[nH]c(CCc2nc(N)n[nH]2)n1 measured_on="NCI-H460 lung" assay_result="> 100 µM"
molecule=CN(C)CCN1C(=O)c2cccc3cccc(c23)C1=O measured_on="NCI-H460 lung" assay_result="> 25 µM"
molecule="CC(C)(C)S(=O)OC12CC3CC(CC(C3)C1)C2 (stereo unspecified)" measured_on="NCI-H460 lung" assay_result="> 100 µM"
molecule=CC1(C)O[C@@H](CBr)C[C@H](C[C@H]2C[C@@H](O)C[C@@H](CCOCc3ccccc3)O2)O1 measured_on="NCI-H460 lung" assay_result="87.1 µM"
molecule="CCN(CC)CCO/N=C1/C=C2CCC3C(CC[C@@]4(C)C3CC[C@]4(C)O)[C@@]2(C)CC1 (stereo partly specified)" measured_on="NCI-H460 lung" assay_result="15.3 µM"

Which value of TGI has been reported for O=c1[nH]n(Cc2ccccc2Cl)c2ccccc12 in the records?
> 100 µM

Do the same for O=C1NC2(CCN(CCCC3(c4ccc(F)cc4)OCCO3)CC2)Oc2ccccc21 please
> 100 µM

Next molecule up: CC(=O)c1sc(=N)n(-c2c(C)cccc2C)c1C
> 100 µM

Entry O=C1OC(c2ccccc2)=N/C1=C\c1cccc(F)c1 please
> 100 µM

Same question for CC(=O)ON(C(C)=O)c1ccc(-c2nc3ccccc3s2)cc1C please.
> 100 µM

Source of measurements: PubChem BioAssay (NCI)
